Below are pKi values for P2X purinoceptor 7 (Rattus norvegicus) collected from several publications.
pKi: −log10 of the molar value.
readout: pKi

**Q:** For the record C[C@H]1c2nnn(-c3ccn(CCF)n3)c2CCN1C(=O)c1cccc(C(F)(F)F)c1Cl (single isomer, unassigned) , what value of pKi is listed for P2X purinoceptor 7 (Rattus norvegicus)?
**A:** 8.30

**Q:** Recall the recorded pKi for Cc1nnc2n1CCN(C(=O)c1cccc(C(F)(F)F)c1Cl)[C@H]2c1ccccc1 with P2X purinoceptor 7 (Rattus norvegicus) and state it.
**A:** 8.70

**Q:** Given the entry C[C@H]1Cn2c(nnc2-c2ncco2)C(=O)N1Cc1cccc(C(F)(F)F)c1Cl , what pKi was observed with P2X purinoceptor 7 (Rattus norvegicus)?
**A:** 8.30

[a] O=C(c1ccnc(C(F)(F)F)c1Cl)N1CCn2c(nnc2C(F)(F)F)C1c1ccccc1 (single isomer, unassigned)
[b] CC[C@H]1Cn2c(nnc2-c2ccc(F)cn2)C(=O)N1Cc1cccc(C(F)(F)F)c1Cl
[c] C[C@H]1Cn2c(nnc2-c2ccc(F)cn2)CN1C(=O)c1cccc(C(F)(F)F)c1Cl
**Q:** List from greatest to least pKi. Please reply with the labels ordered as requested. Many thanks.
**A:** b, c, a

###

Below: compounds with pKi recorded for P2X purinoceptor 7 (Rattus norvegicus, UniProt Q64663) in separate published works.
pKi: −log10 of the molar value.
readout: pKi

Please review the entries below; each comes with its answer.
**Q:** Please give the measured pKi for this compound: Cc1cc(-c2nnc3n2C[C@H](C)N(Cc2cccc(C(F)(F)F)c2Cl)C3=O)n[nH]1
**A:** 9.00

**Q:** Please look up its pKi: C[C@H]1Cn2c(nnc2-c2ccn(C)n2)C(=O)N1Cc1cccc(C(F)(F)F)c1Cl
**A:** 8.49

**Q:** State the recorded pKi for this entry: C[C@H]1Cn2c(nnc2-c2cncc(F)c2)C(=O)N1Cc1cccc(C(F)(F)F)c1Cl
**A:** 8.30

[I] CC(C)c1nnc2n1CCN(C(=O)c1cccc(C(F)(F)F)c1Cl)[C@@H]2c1ccccc1
[II] O=C(c1cccc(C(F)(F)F)c1Cl)N1CCc2c(-c3ccccc3)n[nH]c2C1
**Q:** Larger number for pKi: I , or II ? Identify your selection by its label.
**A:** I

###

Listing of Ki toward P2X purinoceptor 7 (Rattus norvegicus, UniProt Q64663), each taken from a published source.
readout: Ki (nM)

Past entries and their recorded results:
**Q:** Fill blank: measured Ki of the molecule Cc1ccnc(-n2nnc3c2CCN(C(=O)c2cccc(C(F)(F)F)c2Cl)[C@@H]3C)n1 is ____.
**A:** 3.1

**Q:** Would you kindly share the measured Ki for C[C@@H]1c2nnc(-c3ccccn3)n2CCN1C(=O)c1cccc(Cl)c1Cl (single isomer, unassigned) ?
**A:** 9.3

**Q:** # input molecule: O=C(c1cccc(C(F)(F)F)c1Cl)N1CCn2c(nnc2C(F)(F)F)C1c1ccccc1 (racemic) ; wanted: its Ki
**A:** 25.1

[P] C[C@@H]1c2nnn(-c3ncccn3)c2CCN1C(=O)c1cccc(C(F)(F)F)c1F (single isomer, unassigned)
[Q] C[C@H]1Cn2c(nnc2-c2cccc(F)c2)CN1C(=O)c1ccc(F)c(Cl)c1Cl
[R] O=C(c1cccc(Cl)c1Cl)N1CCn2c(C(F)F)nnc2[C@H]1c1ccccc1
[S] C[C@H]1c2nnn(-c3ccn(C)n3)c2CCN1C(=O)c1cccc(C(F)(F)F)c1Cl (single isomer, unassigned)
**Q:** Would you mind ranking these molecules by ascending Ki? Response format: the labels, sorted as the prompt asks.
**A:** P, S, R, Q
(P: 1.6 nM, S: 3.2 nM, R: 16.6 nM, Q: 133 nM)
